Reference source: paper PMC9117324

- Test system: A549 human lung cancer cells
- Assay overview: MTT cell viability assay, A549
- Assay type: cell-based
- Condition context: A549, 48 h
Quantity kind: IC50 (µM)
Give the value, in units of µM, as a plain number.

- Compound: "[Cl][Pt-2]12[S]C(Nc3ccccc3)=N[N+]1=Cc1cccc[n+]12 (centres unmarked) [Pt(TSC)Cl complex, [Pt(TSC)Cl]]"
  System: "A549 human lung cancer cells"
  U: "µM"
  IC50: 102

Turning now to a further compound:
## Task Requested field: IC50. Item: N.N.[Cl][Pt][Cl] [cisplatin, reference compound]
## Result 42.9

---

- System: Caco-2 human colon cancer cells
- Assay overview: MTT cell viability assay, Caco-2
- Assay type: cell-based
- Condition context: Caco-2, 48 h, MTT
Quantity kind: IC50 (nM)
Give the value, in units of nM, as a plain number.

## Task Requested field: IC50. Item: [Cl][Pt-2]12[S]C(Nc3ccccc3)=N[N+]1=Cc1cccc[n+]12 (stereo not shown) [Pt(TSC)Cl complex, [Pt(TSC)Cl]]
## Result 2300
